SYSTEM TESTED: Actin from rabbit muscle (Sigma A2522) (Oryctolagus cuniculus, UniProt P68135)
Construct: purchased Sigma A2522; host or cells: rabbit muscle (tissue-purified)
ASSAY TEXT: Surface plasmon resonance (BIAcore 3000) of actin binding
ASSAY SETUP: actin on CM5 chip, amine coupling; 5 concentrations, 10 μl/min, 25°C; HBS; determined from kinetic analyses, BIAevaluation 3.2; read-out: dissociation constant KD
ENDPOINT NAME: Kd (nM)
Give just the numeric value; nM need not be written.

Which Kd is reported for this substance? hRNASET2: full-length human RNASET2, produced in CHO, T2BIOTECH Ltd 1440
